This collection of values is drawn from patent US12391662B2.

Quick list: Particle Size per entry.
- measurement-notes: LNP particle size and PDI (Malvern ZetaSizer)
- Format: physicochemical
- settings: LNP of Compound:cholesterol:DSPC:DMG-PEG2000=50:38.5:10:1.5 encapsulating mRNA
Hi! Could you send only the number? It should be in nm, unit omitted.

Some solved cases for reference:
{"columns": ["compound", "Particle Size [nm]"],
 "data": [
  ["CCCCCCCCCCCOC(=O)CCCCCC1(CCCCCCCC(=O)OC(CCCCCCCC)CCCCCCCC)OCC(CCN(C)CC)O1 (stereo not drawn)", 78.44],
  ["CCCCCCCCCCCOC(=O)CCCCCC1(CCCCCCCC(=O)OC(CCCCCCCC)CCCCCCCC)OCC(CCN(CC)C(C)C)O1 (stereo not drawn)", 71.68],
  ["CCCCCCCCCCC(=O)OCCCCCCC1(CCCCCCCC(=O)OC(CCCCCCCC)CCCCCCCC)OC[C@H](CCN(C)C)O1 (stereo partly drawn)", 73.41],
  ["CCCCCCCCCCC(=O)OCCCCCCC1(CCCCCCCCOC(=O)C(CCCCCCCC)CCCCCCCC)OCC(CCN(C)C)O1 (stereo not drawn)", 99.68],
  ["CCCCCCCCCCCOC(=O)CCCCCC1(CCCCCCCC(=O)OC(CCCCCCCC)CCCCCCCC)OCC(CCN(CC)CC)O1 (stereo not drawn)", 80.34]
]}

Entry CCCCCCCCCCC(=O)OCCCCCCC1(CCCCCCCC(=O)OC(CCCCCCCC)CCCCCCCC)OCC(CCN(C)C)O1 (stereo not drawn) ; Particle Size = 89.54

Entry CCCCCCCCCCC(=O)OCCCCCCC1(CCCCCCCCOC(=O)C(CCCCCCCC)CCCCCCCC)OCC(CN(C)C)O1 (stereo not drawn) ; Particle Size = 92.38

Entry CCCCCCCCCCC(=O)OCCCCCCC1(CCCCCCCCOC(=O)C(CCCCCCCC)CCCCCCCC)OCC(CN(C)C)CO1 (stereo not drawn) ; Particle Size = 71.61

Entry CCCCCCCCCCCOC(=O)CCCCCC1(CCCCCCCC(=O)OC(CCCCCCCC)CCCCCCCC)OCC(CN(C)C)O1 (stereo not drawn) ; Particle Size = 95.04

Entry CCCCCCCCCCCOC(=O)CCCCCC1(CCCCCCCC(=O)OC(CCCCCCCC)CCCCCCCC)OC[C@H](CCN(C)C)O1 (stereo partly drawn) ; Particle Size = 86.26

Entry CCCCCCCCCCCOC(=O)CCCCCC1(CCCCCCCC(=O)OC(CCCCCCCC)CCCCCCCC)OCC(CCCN(C)C)O1 (stereo not drawn) ; Particle Size = 98.15

Entry CCCCCCCCCCC(=O)OCCCCCCC1(CCCCCCCC(=O)OC(CCCCCCCC)CCCCCCCC)OCC(CN(C)C)O1 (stereo not drawn) ; Particle Size = 69.85

---

- measurement-notes: LNP particle size and PDI (Malvern ZetaSizer)
- Format: physicochemical
- settings: LNP of Compound:cholesterol:DSPC:DMG-PEG2000=50:38.5:10:1.5 encapsulating mRNA
property-label: Particle Size (nm)
Hi! Could you send only the number? It should be in nm, unit omitted.

Some solved cases for reference:
{"columns": ["compound", "property-label", "numeric-value"],
 "data": [
  ["CCCCCCCCCCCOC(=O)CCCCCC1(CCCCCCCC(=O)OC(CCCCCCCC)CCCCCCCC)OCC(CN(C)C)CO1 (stereo not drawn)", "Particle Size", 66.97],
  ["CCCCCCCCC(CCCCCC)C(=O)OCCCCCCC1(CCCCCCOC(=O)C(CCCCCC)CCCCCCCC)OCC(CCN(C)C)O1 (stereo not drawn)", "Particle Size", 92.89]
]}

Okay, next one:
Entry CCCCCCCCCCC(=O)OCCCCCCC1(CCCCCCCC(=O)OC(CCCCCCCC)CCCCCCCC)OC[C@@H](CCN(C)C)O1 (stereo partly drawn) ; Particle Size = 67.95
